system: Mycobacterium tuberculosis Erdman (autoluminescent); test: AUC25, normalised area under dose response up to IC25 (three-drug combination) (fraction (0-1)); higher = more potent at low dose; conditions: in vitro model: valerate; time point: constant (~7 days, model-specific)
measured.property: AUC25
Lab note: jot down the number only; don't add units.

molecule	observed.result
CC(=O)NC[C@H]1CN(c2ccc(N3CCOCC3)c(F)c2)C(=O)O1 [linezolid] + COc1c(N2C[C@@H]3CCCN[C@@H]3C2)c(F)cc2c(=O)c(C(=O)O)cn(C3CC3)c12 [moxifloxacin] + CO[C@H]1/C=C/O[C@@]2(C)Oc3c(C)c(O)c4c(O)c(c(/C=N/N5CCN(C)CC5)c(O)c4c3C2=O)NC(=O)/C(C)=C\C=C\[C@H](C)[C@H](O)[C@@H](C)[C@@H](O)[C@@H](C)[C@H](OC(C)=O)[C@@H]1C [rifampicin]	0.0669

Now examine the next entry.
Ask: Data request, read-out AUC25, for CC(C)/N=c1\cc2n(-c3ccc(Cl)cc3)c3ccccc3nc-2cc1Nc1ccc(Cl)cc1 [clofazimine] + CC(=O)NC[C@H]1CN(c2ccc(N3CCOCC3)c(F)c2)C(=O)O1 [linezolid] + COc1c(N2C[C@@H]3CCCN[C@@H]3C2)c(F)cc2c(=O)c(C(=O)O)cn(C3CC3)c12 [moxifloxacin]
Result: 0.124
